Origin of the recorded values: patent US7045528B2

TESTED ON: unphosphorylated VEGF-R2Δ50 (FLVK) (Homo sapiens, UniProt P35968, DEL940-989/E990V)
Construct: VEGF-R2Δ50 contains residues 806–939 and 990–1171
Sequence (P35968 with tags, fused parts or gaps DEL940-989/E990V limits assumed): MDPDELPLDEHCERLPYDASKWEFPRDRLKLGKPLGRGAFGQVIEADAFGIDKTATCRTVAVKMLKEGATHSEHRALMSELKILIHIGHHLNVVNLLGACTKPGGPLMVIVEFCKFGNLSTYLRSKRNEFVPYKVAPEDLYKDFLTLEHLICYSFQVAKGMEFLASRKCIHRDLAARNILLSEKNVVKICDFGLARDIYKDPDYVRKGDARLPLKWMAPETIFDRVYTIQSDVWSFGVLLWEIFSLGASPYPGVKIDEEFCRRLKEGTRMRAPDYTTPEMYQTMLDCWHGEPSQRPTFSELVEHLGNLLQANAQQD
MEASUREMENT NOTES: VEGF-R2 coupled spectrophotometric assay, unphosphorylated VEGF-R2Δ50 (FLVK)
COND: unphosphorylated VEGF-R2Δ50
pKi: −log10 of the molar value.

- MOLECULE: "CNC(=O)c1c(C)n(C)c2cc(Oc3ccnc4cc(C(=O)N5CCCC5)sc34)ccc12 [Example 28]"
  TESTED ON: "unphosphorylated VEGF-R2Δ50 (FLVK) (Homo sapiens, UniProt P35968, DEL940-989/E990V)"
  pKi: 8.55
- MOLECULE: "CCc1c(C(=O)NC)c2ccc(Oc3ccnc4cc(-c5nccn5C)sc34)cc2n1C [Example 74]"
  TESTED ON: "unphosphorylated VEGF-R2Δ50 (FLVK) (Homo sapiens, UniProt P35968, DEL940-989/E990V)"
  pKi: 7.90
- MOLECULE: "CNC(=O)c1c(C)oc2cc(Oc3ccnc4ccsc34)ccc12 [Example 99]"
  TESTED ON: "unphosphorylated VEGF-R2Δ50 (FLVK) (Homo sapiens, UniProt P35968, DEL940-989/E990V)"
  pKi: 8.33
- MOLECULE: "CNC(=O)c1c(C)n(C)c2cc(Oc3ccnc4cc(C(=O)N5CC[C@@H](N(C)C(=O)OC(C)(C)C)C5)sc34)ccc12 [Example 34]"
  TESTED ON: "unphosphorylated VEGF-R2Δ50 (FLVK) (Homo sapiens, UniProt P35968, DEL940-989/E990V)"
  pKi: 7.94
- MOLECULE: "CNC(=O)c1c(C)oc2cc(Oc3ccnc4cc(C(=O)N5CCC[C@H]5CO)sc34)ccc12 [Example 80]"
  TESTED ON: "unphosphorylated VEGF-R2Δ50 (FLVK) (Homo sapiens, UniProt P35968, DEL940-989/E990V)"
  pKi: 9.36
- MOLECULE: "CCc1oc2cc(Oc3ccnc4cc(C(=O)N5CCC[C@H]5CO)sc34)ccc2c1C(=O)NC [Example 97]"
  TESTED ON: "unphosphorylated VEGF-R2Δ50 (FLVK) (Homo sapiens, UniProt P35968, DEL940-989/E990V)"
  pKi: 8.32
- MOLECULE: "Cc1sc2cc(Oc3ccnc4cc(C(=O)N5CC[C@@H](O)C5)sc34)ccc2c1C(=O)NC1CC1 [Example 121]"
  TESTED ON: "unphosphorylated VEGF-R2Δ50 (FLVK) (Homo sapiens, UniProt P35968, DEL940-989/E990V)"
  pKi: 9.70
- MOLECULE: "CNC(=O)c1csc(-c2cc3nccc(Oc4ccc5c(C(=O)NC)c(C)n(C)c5c4)c3s2)n1 [Example 43]"
  TESTED ON: "unphosphorylated VEGF-R2Δ50 (FLVK) (Homo sapiens, UniProt P35968, DEL940-989/E990V)"
  pKi: 8.49
- MOLECULE: "Cc1c(C(=O)NCCCO)c2ccc(Oc3ccnc4cc(C(=O)N5CCCC5)sc34)cc2n1C [Example 65]"
  TESTED ON: "unphosphorylated VEGF-R2Δ50 (FLVK) (Homo sapiens, UniProt P35968, DEL940-989/E990V)"
  pKi: 8.10
- MOLECULE: "Cc1sc2cc(Oc3ccnc4cc(-c5nccn5C)sc34)ccc2c1C(=O)NCC1CC1 [Example 119]"
  TESTED ON: "unphosphorylated VEGF-R2Δ50 (FLVK) (Homo sapiens, UniProt P35968, DEL940-989/E990V)"
  pKi: 9.43
- MOLECULE: "Cc1c(C(=O)NCCCO)c2ccc(Oc3ccnc4cc(C(=O)N5CCC5)sc34)cc2n1C [Example 63]"
  TESTED ON: "unphosphorylated VEGF-R2Δ50 (FLVK) (Homo sapiens, UniProt P35968, DEL940-989/E990V)"
  pKi: 8.03
- MOLECULE: "CNC(=O)c1c(C)n(C)c2cc(Oc3ccnc4cc(C(=O)N5C[C@H](OC)[C@H](OC)C5)sc34)ccc12 [Example 36]"
  TESTED ON: "unphosphorylated VEGF-R2Δ50 (FLVK) (Homo sapiens, UniProt P35968, DEL940-989/E990V)"
  pKi: 7.94
- MOLECULE: "CNC(=O)c1c(C)n(C)c2cc(Oc3ccnc4cc(C(=O)N(C)CCO)sc34)ccc12 [Example 31]"
  TESTED ON: "unphosphorylated VEGF-R2Δ50 (FLVK) (Homo sapiens, UniProt P35968, DEL940-989/E990V)"
  pKi: 7.52
- MOLECULE: "CCc1sc2cc(Oc3ccnc4cc(C(=O)N5CC[C@@H](OC)C5)sc34)ccc2c1C(=O)NC [Example 135]"
  TESTED ON: "unphosphorylated VEGF-R2Δ50 (FLVK) (Homo sapiens, UniProt P35968, DEL940-989/E990V)"
  pKi: 8.81
- MOLECULE: "CNC(=O)c1c(C)oc2cc(Oc3ccnc4cc(C(=O)N5CCC[C@H]5COC)sc34)ccc12 [Example 79]"
  TESTED ON: "unphosphorylated VEGF-R2Δ50 (FLVK) (Homo sapiens, UniProt P35968, DEL940-989/E990V)"
  pKi: 9.56
- MOLECULE: "CNC(=O)c1c(C)[nH]c2cc(Oc3ccnc4cc(C(=O)N5CC[C@@H](O)C5)sc34)ccc12 [Example 24]"
  TESTED ON: "unphosphorylated VEGF-R2Δ50 (FLVK) (Homo sapiens, UniProt P35968, DEL940-989/E990V)"
  pKi: 8.38
- MOLECULE: "CNC(=O)c1c(C)n(C)c2cc(Oc3ccnc4cc(C(=O)N5CC[C@@H](OC)C5)sc34)ccc12 [Example 18]"
  TESTED ON: "unphosphorylated VEGF-R2Δ50 (FLVK) (Homo sapiens, UniProt P35968, DEL940-989/E990V)"
  pKi: 8.62
- MOLECULE: "CCCNC(=O)c1c(C)n(C)c2cc(Oc3ccnc4cc(C(=O)N5CC[C@@H](O)C5)sc34)ccc12 [Example 59]"
  TESTED ON: "unphosphorylated VEGF-R2Δ50 (FLVK) (Homo sapiens, UniProt P35968, DEL940-989/E990V)"
  pKi: 8.86
- MOLECULE: "COC[C@@H]1CCCN1C(=O)c1cc2nccc(Oc3ccc4c(C(=O)NCCCO)c(C)sc4c3)c2s1 [Example 122]"
  TESTED ON: "unphosphorylated VEGF-R2Δ50 (FLVK) (Homo sapiens, UniProt P35968, DEL940-989/E990V)"
  pKi: 8.29
- MOLECULE: "Cc1c(C(=O)NC(C)C)c2ccc(Oc3ccnc4cc(-c5nccs5)sc34)cc2n1C [Example 66]"
  TESTED ON: "unphosphorylated VEGF-R2Δ50 (FLVK) (Homo sapiens, UniProt P35968, DEL940-989/E990V)"
  pKi: 8.28
- MOLECULE: "CCc1c(C(=O)NC)c2ccc(Oc3ccnc4cc(C(=O)N5CC[C@@H](O)C5)sc34)cc2n1C [Example 73]"
  TESTED ON: "unphosphorylated VEGF-R2Δ50 (FLVK) (Homo sapiens, UniProt P35968, DEL940-989/E990V)"
  pKi: 7.99
- MOLECULE: "Cc1c(C(=O)NCC2CC2)c2ccc(Oc3ccnc4cc(C(=O)N5CC[C@@H](O)C5)sc34)cc2n1C [Example 56]"
  TESTED ON: "unphosphorylated VEGF-R2Δ50 (FLVK) (Homo sapiens, UniProt P35968, DEL940-989/E990V)"
  pKi: 8.42
- MOLECULE: "CCc1sc2cc(Oc3ccnc4cc(C(=O)N5CC[C@@H](O)C5)sc34)ccc2c1C(=O)NC [Example 136]"
  TESTED ON: "unphosphorylated VEGF-R2Δ50 (FLVK) (Homo sapiens, UniProt P35968, DEL940-989/E990V)"
  pKi: 8.93
- MOLECULE: "CNC(=O)c1c(C)sc2cc(Oc3ccnc4cc(C(=O)N5CCC[C@H]5CO)sc34)ccc12 [Example 3]"
  TESTED ON: "unphosphorylated VEGF-R2Δ50 (FLVK) (Homo sapiens, UniProt P35968, DEL940-989/E990V)"
  pKi: 9.09
- MOLECULE: "Cc1c(C(=O)NC2CC2)c2ccc(Oc3ccnc4cc(C(=O)N5CC[C@@H](O)C5)sc34)cc2n1C [Example 53]"
  TESTED ON: "unphosphorylated VEGF-R2Δ50 (FLVK) (Homo sapiens, UniProt P35968, DEL940-989/E990V)"
  pKi: 8.97
- MOLECULE: "CCCNC(=O)c1c(C)n(C)c2cc(Oc3ccnc4cc(C(=O)N5CCC[C@H]5CO)sc34)ccc12 [Example 58]"
  TESTED ON: "unphosphorylated VEGF-R2Δ50 (FLVK) (Homo sapiens, UniProt P35968, DEL940-989/E990V)"
  pKi: 8.12
- MOLECULE: "CNC(=O)c1c(C)sc2cc(Oc3ccnc4cc(COCCN5CCCC5)sc34)ccc12 [Example 114]"
  TESTED ON: "unphosphorylated VEGF-R2Δ50 (FLVK) (Homo sapiens, UniProt P35968, DEL940-989/E990V)"
  pKi: 6.93
- MOLECULE: "CO[C@@H]1CCN(C(=O)c2cc3nccc(Oc4ccc5c(C(=O)NCCO)c(C)oc5c4)c3s2)C1 [Example 93]"
  TESTED ON: "unphosphorylated VEGF-R2Δ50 (FLVK) (Homo sapiens, UniProt P35968, DEL940-989/E990V)"
  pKi: 8.57
- MOLECULE: "Cc1c(C(=O)NCCCO)c2ccc(Oc3ccnc4cc(C(=O)N5CC[C@@H](O)C5)sc34)cc2n1C [Example 64]"
  TESTED ON: "unphosphorylated VEGF-R2Δ50 (FLVK) (Homo sapiens, UniProt P35968, DEL940-989/E990V)"
  pKi: 7.93
- MOLECULE: "CNC(=O)c1c(C)n(C)c2cc(Oc3ccnc4cc(-c5cccc(OC)n5)sc34)ccc12 [Example 49]"
  TESTED ON: "unphosphorylated VEGF-R2Δ50 (FLVK) (Homo sapiens, UniProt P35968, DEL940-989/E990V)"
  pKi: 7.80
- MOLECULE: "Cc1sc2cc(Oc3ccnc4cc(C(=O)N5CC[C@@H](O)C5)sc34)ccc2c1C(=O)NCC1CC1 [Example 126]"
  TESTED ON: "unphosphorylated VEGF-R2Δ50 (FLVK) (Homo sapiens, UniProt P35968, DEL940-989/E990V)"
  pKi: 9.23
